target: UniProt:P08485; assay: Rat M4 PAM pERK assay; settings: PAM mode
Sequence (P08485 whole entry): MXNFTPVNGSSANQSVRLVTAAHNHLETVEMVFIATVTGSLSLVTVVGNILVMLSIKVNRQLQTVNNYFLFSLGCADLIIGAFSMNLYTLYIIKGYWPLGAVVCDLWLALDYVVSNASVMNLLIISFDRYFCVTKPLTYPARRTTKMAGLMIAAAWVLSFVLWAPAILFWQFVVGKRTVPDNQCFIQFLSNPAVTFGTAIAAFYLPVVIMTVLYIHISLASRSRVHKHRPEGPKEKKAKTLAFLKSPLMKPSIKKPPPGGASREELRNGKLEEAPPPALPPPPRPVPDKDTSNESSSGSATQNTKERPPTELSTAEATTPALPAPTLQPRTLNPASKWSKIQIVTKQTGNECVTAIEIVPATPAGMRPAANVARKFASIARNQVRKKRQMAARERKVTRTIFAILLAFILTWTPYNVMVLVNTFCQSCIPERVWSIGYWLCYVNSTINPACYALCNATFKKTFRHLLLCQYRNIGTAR
Observation Type: EC50

[[record]]
input_smiles = "Cc1ncc(C(=O)N2Cc3c(C)c(Cl)c(=O)n(C)c3C2)s1"
observation_type = "EC50"
result = "500 to 2000 nM"

[[record]]
input_smiles = "Cc1c2c(n(C)c(=O)c1C)CN(C(=O)c1cnn(C(F)(F)F)c1)[C@@H]2C"
observation_type = "EC50"
result = "100 to 500 nM"

[[record]]
input_smiles = "Cc1c2c(n(C)c(=O)c1Cl)CN(C(=O)c1ccc3nc(C4CC4)sc3c1)C2"
observation_type = "EC50"
result = "100 to 500 nM"

[[record]]
input_smiles = "Cc1c2c(n(C)c(=O)c1Cl)CN(C(=O)c1ccn(C(F)(F)F)n1)C2"
observation_type = "EC50"
result = "> 2000 nM"

[[record]]
input_smiles = "Cc1c2c(n(C)c(=O)c1Cl)CN(C(=O)c1cnc(CC3CC3)s1)C2"
observation_type = "EC50"
result = "500 to 2000 nM"

[[record]]
input_smiles = "COc1c2c(n(C)c(=O)c1C)CN(C(=O)c1cnn(C(F)(F)F)c1)C2"
observation_type = "EC50"
result = "> 2000 nM"

[[record]]
input_smiles = "Cc1c2c(n(C)c(=O)c1Cl)CN(C(=O)c1cn3c(n1)COCC3)C2"
observation_type = "EC50"
result = "> 2000 nM"

[[record]]
input_smiles = "Cc1c2c(n(C)c(=O)c1Cl)CN(C(=O)c1cn3c(n1)CCCC3)C2"
observation_type = "EC50"
result = "> 2000 nM"

